test system: MALME-3M melanoma; experiment: NCI-60 one-dose screen, 48 h (100 = growth as untreated, 0 = no growth, -100 = all killed); settings: 10 µM unless noted
The panel holds about 83,000 compounds, 20% with a hit somewhere; the sample as a whole holds those more often.
Below, each of the molecules is paired with its reported growth value.
Write it as a number; the unit % goes unstated.

>>> value_reported("CCOC(=O)c1c(C)[nH]c(C)c1C=O")
108
>>> value_reported("CC(=O)Nc1ncc(S(=O)(=O)c2ccc([N+](=O)[O-])cc2)s1")
118

QUERY: Query (molecule): CCOC(=O)c1ccc(C(C)(C)C)cc1 ; field requested: growth
RESULT: 103

====

test system: MALME-3M melanoma; experiment: NCI-60 one-dose screen, 48 h; conditions: 10 µM unless noted
The panel holds about 83,000 compounds, 20% with a hit somewhere; the sample as a whole holds those more often. Calls of active or inactive are those of the source. Rule for the calls: active = growth percent below 10; inactive = the rest.
# valid calls are 1 (yes) (active), 0 (no) (inactive); nothing else

>>> assigned_category("O=Cc1ccc(Cl)c(Cl)c1")
"0 (no)"
>>> assigned_category("NNc1ncnc2c1ncn2C1OC(CO)C(O)C1O (centres undefined)")
"0 (no)"
>>> assigned_category("CCN(CC)CCN1CNC(=S)NC1")
"0 (no)"
>>> assigned_category("Nc1c(O)c(S(=O)(=O)O)c(O)c2c1C(=O)c1ccccc1C2=O")
"1 (yes)"
>>> assigned_category("C=CCC(OC(C)=O)c1ccc(C(C)C)cc1 (centres undefined)")
"0 (no)"
>>> assigned_category("COc1ccc(Nc2cc(Cl)ccc2C(=O)O)cn1")
"0 (no)"
>>> assigned_category("Oc1cc(O)c2c(c1)O[C@H](c1ccc(O)c(O)c1)[C@@H](O)C2")
"0 (no)"
>>> assigned_category("C[n+]1cc2cc3c(cc2c2ccccc21)OCO3")
"1 (yes)"

Now for a further molecule.
QUERY: Lab log entry: OC1Cc2ccccc2C1 — outcome as called in the assay?
RESULT: 0 (no)

====

system: IGROV1 ovarian; assay: NCI-60 one-dose screen, 48 h; details: 10 µM unless noted
Compounds without any hit were thinned out: in the full panel of roughly 83,000, 20% have a hit. Active and inactive are the calls of the source. Rule for the calls: active = growth percent below 10; inactive = the rest.
# valid calls are 1 (yes) (active), 0 (no) (inactive); nothing else

>>> assigned_category("CN1CCCN(C(c2ccccc2)c2ccc(Br)cc2)CC1 (stereo not given)")
"0 (no)"
>>> assigned_category("Cc1c(-c2ccc(C3CCCCC3)cc2)nc2ccc(F)cc2c1C(=O)O")
"0 (no)"
>>> assigned_category("OCC1CCC(O)C(CO)N1 (stereo not given)")
"0 (no)"
>>> assigned_category("CCCCCCCCCCCCCCCCCC(=O)NCCNC(=O)CCCCCCCCCCCCCCCCC")
"0 (no)"
>>> assigned_category("S=C=Nc1ccc2ccccc2c1")
"0 (no)"

Now for a further compound.
QUERY: Lab log entry: CCC(C)c1c(N)n(S(=O)(=O)c2ccc(C)cc2)oc1=O (stereo not given) — outcome as called in the assay?
RESULT: 0 (no)

====

system: NCI-H322M lung; assay: NCI-60 one-dose screen, 48 h (100 = growth as untreated, 0 = no growth, -100 = all killed); conditions: 10 µM unless noted
This is part of a sample that, as a whole, favours compounds with a hit. Of some 83,000 tested, about 20% had one in any assay. Activity calls are given as the source filed them. Rule for the calls: active = growth percent below 10; inactive = the rest.
observation type: growth

Consider the reported growth for these compounds:
>>> value_reported("Cc1ccc(S(=O)(=O)CCCl)cc1")
"128% (inactive)"
>>> value_reported("CCCCn1cnc2c(=O)[nH]cnc21")
"104% (inactive)"
>>> value_reported("CCOC(=O)C(COS(C)(=O)=O)(COS(C)(=O)=O)C(=O)OCC")
"101% (inactive)"
>>> value_reported("CC(=O)C[n+]1ccc(C)cc1Sc1ccccc1C")
"102% (inactive)"
>>> value_reported("Cc1ccc(/C=N/NC(N)=S)s1")
"98.9% (inactive)"

QUERY: Query (compound): C=C1CC2(OC1=O)C(=O)N(C)c1ccc(I)cc12 (stereo not given) ; field requested: growth
RESULT: 50.6% (inactive)

QUERY: Next entry: NC(CSSCC(N)C(=O)O)C(=O)O (stereo not given)
RESULT: 36.6% (inactive)

QUERY: Next entry: NNC(=O)c1ccccc1N
RESULT: 118% (inactive)

QUERY: Next entry: COC(=O)C1=C(C)C(=O)CC1
RESULT: 115% (inactive)

QUERY: Next entry: CC(=O)Nc1ccc(O)c(C)c1
RESULT: 100% (inactive)

QUERY: Next entry: OCCOc1ccc(-c2cc(-c3ccccn3)nc(-c3ccccn3)c2)cc1
RESULT: 9.08% (active)

QUERY: Next entry: CC(=O)OCC1CCC(COC(C)=O)CC1 (stereo not given)
RESULT: 96.6% (inactive)

QUERY: Next entry: ClCC(Cl)[C@@H]1CC2C=CC1C2 (stereo not given in full)
RESULT: 108% (inactive)

QUERY: Next entry: O=C(CCl)Oc1ccc([N+](=O)[O-])cc1
RESULT: 106% (inactive)

QUERY: Next entry: COC(=O)c1cccc([N+](=O)[O-])c1
RESULT: 103% (inactive)

Data origin: PubChem BioAssay (NCI)
